B1: RAD51 (parent)
chain: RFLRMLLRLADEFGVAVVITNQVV

# Variants of: B1
# Measurement protocol: protein stability index of a GFP-peptide fusion (GPS, HEK-293T) (PSI 1-6); higher = more stable;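 also: lentivirally expressed fusions sorted by FACS into six bins by GFP to DsRed ratio, PSI derived from sequencing read proportions per bin multiplied by bin number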
# Condition description: c terminus: a fixed tail appended
Provide the reported protein stability index of each item.
Give bare numbers.

Example variants with recorded protein stability index:
# Alteration, protein stability index
records = [
    ("L9S", 1.76),
    ("L3Y", 2.14),
    ("V17Q", 1.25),
    ("V15G", 1.98),
    ("E12V", 1.94),
]

# return protein stability index for each item in the list
1. V18G
2. F2C
3. T20D

OUT:
[2.45, 1.75, 2.52]

For each of the variants below, note its protein stability index.
1. Q22E
2. V17T
3. G14M
4. V18A
5. A16Q
6. V15E
7. L3Q

OUT:
1: 3.17; 2: 2.11; 3: 1.74; 4: 3.03; 5: 1.87; 6: 2.08; 7: 1.78

Give one value of protein stability index per listed variant.
1. V24L
2. V23N
3. V23E
4. V23C
5. A16I
6. R8G
7. V24F

OUT:
1. 2.03
2. 1.9
3. 1.9
4. 2.69
5. 2.24
6. 1.46
7. 2.68

Sourced from the supplement of paper PMC10567573
